src = ChEMBL document CHEMBL2163192

Target: D(2) dopamine receptor (Homo sapiens)
Assay: Inhibition of dopamine D2 receptor at 10 uM
measured endpoint: inhibition (%)

molecule	measured endpoint	endpoint value
CN(C)C1CCc2c(c3ccccc3n2S(=O)(=O)c2cccc(Cl)c2)C1 (racemic)	inhibition	32.1
CN(C)C1CCc2c(c3cc(Br)ccc3n2S(=O)(=O)c2ccccc2)C1 (racemic)	inhibition	67.4
CN(C)C1CCc2c(c3ccccc3n2S(=O)(=O)c2cccc(C(F)(F)F)c2)C1 (racemic)	inhibition	60.4
COc1ccc2c(c1)c1c(n2S(=O)(=O)c2ccccc2)CCC(N(C)C)C1 (racemic)	inhibition	51.3

###

Target: 5-hydroxytryptamine receptor 1A (Homo sapiens) (UniProt P08908)
Sequence (P08908 whole entry): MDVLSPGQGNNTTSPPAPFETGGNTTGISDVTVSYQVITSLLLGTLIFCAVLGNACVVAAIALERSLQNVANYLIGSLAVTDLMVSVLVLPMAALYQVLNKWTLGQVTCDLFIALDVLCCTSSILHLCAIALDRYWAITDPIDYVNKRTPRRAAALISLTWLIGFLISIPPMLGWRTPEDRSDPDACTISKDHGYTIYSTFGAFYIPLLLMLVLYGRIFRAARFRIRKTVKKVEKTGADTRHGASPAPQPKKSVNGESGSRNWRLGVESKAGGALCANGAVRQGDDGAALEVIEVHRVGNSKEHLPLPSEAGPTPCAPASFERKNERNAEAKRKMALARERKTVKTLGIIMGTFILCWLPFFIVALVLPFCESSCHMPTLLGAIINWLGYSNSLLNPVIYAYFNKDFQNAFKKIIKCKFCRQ
Assay: Inhibition of 5-HT1A receptor at 10 uM
Catalogue of inhibition readings, one per entry.
measured endpoint: inhibition (%)

molecule	unit of measurement	endpoint value
CN(C)C1CCc2c(c3cc(Br)ccc3n2S(=O)(=O)c2ccccc2)C1 (racemic)	%	43.9
COc1ccc2c(c1)c1c(n2S(=O)(=O)c2ccccc2)CCC(N(C)C)C1 (racemic)	%	43.1
CN(C)C1CCc2c(c3ccccc3n2S(=O)(=O)c2cccc(Cl)c2)C1 (racemic)	%	50.3
CN(C)C1CCc2c(c3ccccc3n2S(=O)(=O)c2cccc(C(F)(F)F)c2)C1 (racemic)	%	57.5
